Where do the numbers come from? From the supplement of paper PMC4466140.

- Study System: CaHof1
- Assay Procedure: SPOT peptide array binding signal intensity (averaged, normalized) (arbitrary units (background-subtracted, floor 0; scale differs between SH3 domains)); higher = stronger binding of the SH3 domain to the peptide
SPOT peptide array binding signal intensity for assorted binders

INPUT: Given the binder GKLKHIPRRPYEIER , write its reported SPOT peptide array binding signal intensity.
OUTPUT: ≤ 0

INPUT: Given the binder PPIPNAPLSPAPAVP , write its reported SPOT peptide array binding signal intensity.
OUTPUT: ≤ 0

Lab note: next binder to report on.
INPUT: Given the binder QDKEGIPPDQQRLIF , write its reported SPOT peptide array binding signal intensity.
OUTPUT: ≤ 0
